Molecular target: human KOR (Homo sapiens, UniProt P41145)
Assay: GloSensor assay, Gi-mediated cAMP inhibition in HEK-293T cells transfected with human KOR
Format: cell-based
Settings: Table 2, KOR; read-out: GloSensor Assay (pIC50) (converted)
Sequence (P41145 whole entry): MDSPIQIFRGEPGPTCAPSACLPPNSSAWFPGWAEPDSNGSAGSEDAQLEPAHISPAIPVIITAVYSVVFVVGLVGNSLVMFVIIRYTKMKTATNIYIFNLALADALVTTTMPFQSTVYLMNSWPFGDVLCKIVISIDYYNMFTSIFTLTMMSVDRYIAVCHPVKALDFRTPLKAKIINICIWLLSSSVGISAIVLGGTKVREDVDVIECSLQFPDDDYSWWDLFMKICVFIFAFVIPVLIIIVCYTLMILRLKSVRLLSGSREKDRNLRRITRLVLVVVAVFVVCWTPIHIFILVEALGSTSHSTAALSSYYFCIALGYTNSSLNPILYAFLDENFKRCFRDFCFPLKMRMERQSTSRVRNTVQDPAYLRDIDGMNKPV
Provide the reported IC50 of each item.

Q: What value of IC50 has been recorded for this entry: Cc1ccc(-c2c3c4[nH]c5ccccc5c4cc[n+]3cn2-c2ccc(F)cc2)cc1.[Cl-] [8akd]
Result: 0.641 nM

Q: Field entry: Brc1ccc(-c2c3c4[nH]c5ccccc5c4cc[n+]3cn2-c2cccc(Br)c2)cc1.[Cl-] [8abe]
Result: 12.9 nM

Q: Field entry: Fc1ccc(-n2c[n+]3ccc4c5ccccc5[nH]c4c3c2-c2ccccc2Br)cc1.[Cl-] [8acd]
Result: 1.58 nM

Q: Field entry: Clc1ccc(-n2c[n+]3ccc4c5ccccc5[nH]c4c3c2-c2ccccc2Cl)cc1.[Cl-] [8aec]
Result: 7.94 nM

Q: Field entry: Clc1ccc(-n2c[n+]3ccc4c5ccccc5[nH]c4c3c2-c2ccccc2Br)cc1.[Cl-] [8acc]
Result: 0.589 nM

Q: Field entry: Clc1ccc(-n2c[n+]3ccc4c5ccccc5[nH]c4c3c2-c2ccc(Br)cc2)cc1.[Cl-] [8abc]
Result: 1.12 nM

Q: Field entry: Fc1ccc(-n2c[n+]3ccc4c5ccccc5[nH]c4c3c2-c2ccc(Br)cc2)cc1.[Cl-] [8abd]
Result: 1.05 nM

Q: Field entry: Clc1ccc(-c2c3c4[nH]c5ccccc5c4cc[n+]3cn2-c2ccc(Cl)cc2)cc1.[Cl-] [8adc]
Result: 0.501 nM

====

Target: human KOR (Homo sapiens, UniProt P41145)
Assay: GloSensor assay, Gi-mediated cAMP inhibition in HEK-293T cells transfected with human KOR
Type: cell-based
Settings: KOR; GloSensor versus Tango
measured-attribute: G-Protein Bias factor (IC50 -Glosensor/- EC50 - Tango)
# respond with the number and nothing more

Q: What value of G-Protein Bias factor (IC50 -Glosensor/- EC50 - Tango) has been recorded for this entry: Brc1ccc(-n2c[n+]3ccc4c5ccccc5[nH]c4c3c2-c2ccccc2Br)cc1.[Cl-]
Result: 3.6

Q: Field entry: Fc1ccc(-n2c[n+]3ccc4c5ccccc5[nH]c4c3c2-c2ccc(Cl)cc2)cc1.[Cl-]
Result: 2.67

Q: Field entry: Brc1ccc(-c2c3c4[nH]c5ccccc5c4cc[n+]3cn2-c2cccc(Br)c2)cc1.[Cl-]
Result: 1.72

Q: Field entry: Clc1ccc(-n2c[n+]3ccc4c5ccccc5[nH]c4c3c2-c2ccccc2Cl)cc1.[Cl-]
Result: 1.23

Q: Field entry: Cc1ccc(-c2c3c4[nH]c5ccccc5c4cc[n+]3cn2-c2ccc(F)cc2)cc1.[Cl-]
Result: 3.15

Q: Field entry: Clc1ccc(-c2c3c4[nH]c5ccccc5c4cc[n+]3cn2-c2ccc(Cl)cc2)cc1.[Cl-]
Result: 3.28

Q: Field entry: Clc1ccc(-n2c[n+]3ccc4c5ccccc5[nH]c4c3c2-c2ccccc2Br)cc1.[Cl-]
Result: 2.89

Q: Field entry: Fc1ccc(-n2c[n+]3ccc4c5ccccc5[nH]c4c3c2-c2ccccc2Br)cc1.[Cl-]
Result: 3

====

Target: human KOR (Homo sapiens, UniProt P41145)
Experiment: β-arrestin2 Tango assay in HTLA cells transiently transfected with human KOR
Assay type: cell-based
Conditions: Table 2, KOR; read-out: B-arrestin Tango Assay (pEC50) (converted)
Sequence (P41145 whole entry, added parts left off): as the sequence (P41145 whole entry) above
Our labelling divides records by EC50 into ranges: range A (below 300 nM), range B (300 nM to below 900 nM), range C (900 nM or more)

Q: In plain terms, what class is Fc1ccc(-n2c[n+]3ccc4c5ccccc5[nH]c4c3c2-c2ccccc2Cl)cc1.[Cl-] ?
Result: range A

Q: Field entry: Clc1ccc(-n2c[n+]3ccc4c5ccccc5[nH]c4c3c2-c2ccc(Br)cc2)cc1.[Cl-]
Result: range A

Q: Field entry: Clc1ccc(-c2c3c4[nH]c5ccccc5c4cc[n+]3cn2-c2ccc(Cl)cc2)cc1.[Cl-]
Result: range C

Q: Field entry: Clc1ccc(-n2c[n+]3ccc4c5ccccc5[nH]c4c3c2-c2ccccc2Br)cc1.[Cl-]
Result: range B

Q: Field entry: Fc1ccc(-n2c[n+]3ccc4c5ccccc5[nH]c4c3c2-c2ccc(Cl)cc2)cc1.[Cl-]
Result: range C

Q: Field entry: Fc1ccc(-n2c[n+]3ccc4c5ccccc5[nH]c4c3c2-c2ccccc2Br)cc1.[Cl-]
Result: range C

Q: Field entry: Brc1ccc(-c2c3c4[nH]c5ccccc5c4cc[n+]3cn2-c2cccc(Br)c2)cc1.[Cl-]
Result: range B

Q: Field entry: Fc1ccc(-n2c[n+]3ccc4c5ccccc5[nH]c4c3c2-c2ccc(Br)cc2)cc1.[Cl-]
Result: range A

Q: Field entry: Clc1ccc(-n2c[n+]3ccc4c5ccccc5[nH]c4c3c2-c2ccccc2Cl)cc1.[Cl-]
Result: range A

Q: Field entry: Brc1ccc(-n2c[n+]3ccc4c5ccccc5[nH]c4c3c2-c2ccccc2Br)cc1.[Cl-]
Result: range B

Q: Field entry: Clc1ccc(-c2c3c4[nH]c5ccccc5c4cc[n+]3cn2-c2ccc(Br)cc2)cc1.[Cl-]
Result: range B
